System: FGFR4;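 further: KINOMEscan kinase panel screen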
Settings: concentration: 1 μM, replicates: in singlicate; n = 1
This listing pairs compounds with measured %Inh.
Kindly report the value followed by its unit.

Record excerpt, results attached:
>  <compound>
O=C(NCCNc1ccnc(Nc2ccc(F)cc2)n1)c1cc2ccccc2s1

>  <result>
0%

$$$$
>  <compound>
Cl.Cl.Cl.Fc1ccc(-c2ncn(C3CCNCC3)c2-c2ccnc(Nc3ccccc3)n2)cc1

>  <result>
0%

$$$$

# input compound: C[C@@H](Oc1cc(-n2cnc3ccc(NC(=O)NC(C)(C)C)cc32)sc1C(N)=O)c1ccccc1Cl ; wanted: its %Inh
14%

# input compound: CN(C(=O)c1ccc(-c2cc(-c3c[nH]nc3-c3ccccn3)ccn2)cc1)C1CCOCC1 ; wanted: its %Inh
0%

# input compound: Cn1ccc2ncnc(Oc3ccc(NC(=O)Nc4ccncc4)c(Cl)c3)c21 ; wanted: its %Inh
0%

# input compound: COc1cc2c(cc1OC[C@@H](O)CO)ncc1c3ccc(C#N)cc3[nH]c21 ; wanted: its %Inh
0%

# input compound: COc1ccc(Nc2nccc(N3CCC(NC(=O)Nc4cccc(C(C)=O)c4)C3)n2)cc1 (stereo not shown) ; wanted: its %Inh
30%

# input compound: COc1ccc(Nc2nccc(N3CCC(NC(=O)Nc4cc(C)ccc4C)C3)n2)cc1 (stereo not shown) ; wanted: its %Inh
0%

# input compound: O=c1cc(N2CCOCC2)nc2n(Cc3cccc(Cl)c3Cl)c(C3CC3)nn12 ; wanted: its %Inh
0%

# input compound: O=C(NCCNc1ccnc(Nc2ccc(F)cc2)n1)Nc1ccccc1F ; wanted: its %Inh
11%
